test system: UACC-62; assay: NCI tumour cell line growth inhibition, 48 h
Activity calls are given as the source filed them. Cut-off read from the data, not from the text of the source: active = GI50 up to about 1.1 µM and inactive = higher.
Respond using exactly one of the listed classes: active, inactive

Which outcome was assigned to `CNC(=O)OCc1cc2ccncc2c2c1[nH]c1ccccc12` in this test?
inactive

Record request — test call for COc1c(C)cc2c(c1O)C1NC(C2)[C@H](O)N2C3COC(=O)[C@@]4(CS[C@@H](c5c(OC(C)=O)c(C)c6c(c53)OCO6)C12)NCCC1=C4NC2C=CC=CC12 (stereo not given in full)
active

Look up the recorded call for `COc1ccc(N2C(=O)c3cccnc3S2(=O)=O)cc1` in this test.
inactive

Which result was noted for this compound in the test: `N#CCCN(CCC#N)c1ccc(/C=C(/NC(=O)c2cc([N+](=O)[O-])ccc2Cl)C(=O)NN)cc1`
inactive

Please share the test call associated with COc1nc(N)c(NC2OC(CO)C(O)C2O)c(=O)[nH]1 (stereo not given) .
inactive

Hi team, can someone confirm the assay call for `O=c1[nH][nH]c(=S)c(=O)[nH]1` ?
inactive

Query: recorded result category for `O=c1cc(CO)n(CCc2c[nH]c3ccccc23)cc1O` in this test
inactive

Record request — test call for `CCOC(=O)/C(=C\Nc1c(C)n(C)n(-c2ccccc2)c1=O)C(=O)c1ccccc1`
inactive

Returns: the outcome recorded for `O=C(O)c1ccc([N+](=O)[O-])c2cc3cnccc3nc12` in this assay.
inactive

Fill in: this test's call for C/C(=C\CSCC(N)C(=O)O)CC/C=C(\C)CNc1ccccc1 (stereo not given) is ___
inactive

* * *

system: MCF7; assay: NCI tumour cell line growth inhibition, 48 h
The source made the active and inactive calls. No stated cut-off is given here; in the data, active = GI50 up to about 1.1 µM and inactive = higher.
measurement_name: GI50

Bench note, MCF7: `COc1ccc(/C=C/[N+](=O)[O-])cc1` , GI50 reads 2.02 µM (inactive)

Fill in: MCF7 GI50 for `CC(=O)O[C@@H]1C[C@]2(C(=O)c3ccccc3)C(=O)C(=O)S[C@]12c1ccccc1` = 30 µM (inactive)

With MCF7 as the test system, `Nc1nc(S)c2c(N)n[nH]c2c1C(=O)Nc1ccc(Cl)cc1` showed GI50 of > 100 µM (inactive)

Form field GI50 for item `N#Cc1ccc(N2CCOCC2)cc1` on MCF7: > 100 µM (inactive)

Short answer on MCF7 for `COC[C@@H](/N=C/c1ccc([N+](=O)[O-])cc1)C(C)C` , GI50: 95.1 µM (inactive)

Record `CC(C)(C)OC(=O)N(O)CCCn1cnc2c(NC3CC3)ncnc21` ; system MCF7; GI50 = > 100 µM (inactive)

* * *

Please respond with reported GI50 for every item in the list.
system: NCI-H23; experiment: NCI tumour cell line growth inhibition, 48 h
Active and inactive are the calls of the source. No stated cut-off is given here; in the data, active = GI50 up to about 1.1 µM and inactive = higher.

Record summary for COc1cccc(C23CCCC(C2)N(C)CC3OC(=O)c2ccccc2)c1OC (stereo not given) : reported GI50 = 10.7 µM (inactive)

Lookup result for `CCNCCNC(=O)c1ccc(I)cc1` ; measured GI50: > 100 µM (inactive)

response.value for CCCC[C@H]1C(=O)O[C@H](C)[C@H](NC(=O)c2cccc(NC=O)c2OC)C(=O)O[C@@H](C)[C@@H]1OC(=O)C(C)CC.CCCC[C@H]1C(=O)O[C@H](C)[C@H](NC(=O)c2cccc(NC=O)c2OC)C(=O)O[C@@H](C)[C@@H]1OC(=O)CC(C)C (stereo not given in full) (field: GI50) = 7.36 µM (inactive)

GI50 reading for `COC(=O)[C@H](Cc1ccccc1)NC(=O)c1ccc(CNC(=O)/C=C/c2ccc(-c3ccccc3)cc2)cc1` : 27.8 µM (inactive)

Entry `O=C(N/N=C1\CCc2ccccc21)N/N=C1\CCc2ccccc21` , GI50 reported as > 100 µM (inactive)

Consider Cc1cc(C)c2nc3c(c(C(O)C4CCCCN4)c2c1)CC/C3=C\c1ccc(Cl)cc1 (stereo not given) . Its measured GI50 is 85.9 µM (inactive)

Query CCOc1ccc(/N=N/C2C(=O)N(C(=O)CC(=O)Nc3ccc(C)cc3)N=C2C)cc1 (stereo not given) yields GI50 of 26.5 µM (inactive)

Recorded result, `O=c1cc(NNc2ccccc2F)[nH]c(=O)[nH]1` , GI50: 17.3 µM (inactive)

// sample O=c1[nH]c(=O)n([C@@H]2O[C@H](CO)[C@@H](O)[C@@H]2F)cc1I [FIALURIDINE] , its GI50 was > 100 µM (inactive)

Summary for this molecule, `Cn1c(-c2c(C3=CC(=O)N(c4ccccc4)C3=O)c3ccccc3n2C)cc2ccccc21` : GI50 is > 100 µM (inactive)
